Hi there, I'd appreciate the recorded pKd for every entry that follows.
targetOfAssay: T1, Bcd homeodomain (Drosophila melanogaster, UniProt P09081-2 77-166)
T1 sequence: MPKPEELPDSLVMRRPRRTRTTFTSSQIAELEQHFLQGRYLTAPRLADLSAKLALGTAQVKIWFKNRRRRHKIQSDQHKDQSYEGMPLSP
testDescription: FP; 33 mM phosphate pH 7.0, 90 mM NaCl, 0.01% Tween 20, 0.1 mM DTT, 0.5% agarose; room temperature
measurementContext: tags: N-GST (pGEX-6P-1, kept); printed reverse strand differs at base 6 of strand 1 (G / C); complement of the forward strand used
Note on units: pKd is unitless, being -log10 of a concentration expressed in mol/L.

### Prompt I am curious: what pKd value has been reported for Bcd oligo 32 (dsDNA) DNA 1: TCGACGGTAATCCCGA DNA 2: TCGGGATTACCGTCGA ?
### Response 8.29

### Prompt I am curious: what pKd value has been reported for Bcd oligo 3 (dsDNA) DNA 1: TCGAAGGTAATCCCTA DNA 2: TAGGGATTACCTTCGA ?
### Response 8.43

### Prompt I am curious: what pKd value has been reported for Bcd oligo 31 (dsDNA) DNA 1: TCGACGGTAATCCCCA DNA 2: TGGGGATTACCGTCGA ?
### Response 8.42

### Prompt I am curious: what pKd value has been reported for Bcd oligo 1 (dsDNA) DNA 1: TCGAGGGTAATCCCTA DNA 2: TAGGGATTACCCTCGA ?
### Response 8.57

### Prompt I am curious: what pKd value has been reported for Bcd oligo 15 (dsDNA) DNA 1: TCGACGGTTATCCCTA DNA 2: TAGGGATAACCGTCGA ?
### Response 7.53

### Prompt I am curious: what pKd value has been reported for Bcd oligo 8 (dsDNA) DNA 1: TCGACGTTAATCCCTA DNA 2: TAGGGATTAACGTCGA ?
### Response 8.55

### Prompt I am curious: what pKd value has been reported for Bcd oligo 18 (dsDNA) DNA 1: TCGACGGTATTCCCTA DNA 2: TAGGGAATACCGTCGA ?
### Response 6.89

### Prompt I am curious: what pKd value has been reported for Bcd oligo 7 (dsDNA) DNA 1: TCGACGCTAATCCCTA DNA 2: TAGGGATTAGCGTCGA ?
### Response 8.56

### Prompt I am curious: what pKd value has been reported for Bcd oligo 11 (dsDNA) DNA 1: TCGACGGGAATCCCTA DNA 2: TAGGGATTCCCGTCGA ?
### Response 7.67

### Prompt I am curious: what pKd value has been reported for Bcd oligo 33 (dsDNA) DNA 1: TCGACGGTAATCCCAA DNA 2: TTGGGATTACCGTCGA ?
### Response 8.33

### Prompt I am curious: what pKd value has been reported for Bcd oligo 25 (dsDNA) DNA 1: TCGACGGTAATCGCTA DNA 2: TAGCGATTACCGTCGA ?
### Response 7.85

### Prompt I am curious: what pKd value has been reported for Bcd oligo 10 (dsDNA) DNA 1: TCGACGGCAATCCCTA DNA 2: TAGGGATTGCCGTCGA ?
### Response 7.69

### Prompt I am curious: what pKd value has been reported for Bcd oligo 22 (dsDNA) DNA 1: TCGACGGTAATGCCTA DNA 2: TAGGCATTACCGTCGA ?
### Response 7.04
